Source: paper PMC9090415

- SUBJECT_OF_TEST: bacteriophage T4 DNA polymerase (Enterobacteria phage T4, UniProt P04415)
- Construct: made in house
- Sequence (P04415 whole entry): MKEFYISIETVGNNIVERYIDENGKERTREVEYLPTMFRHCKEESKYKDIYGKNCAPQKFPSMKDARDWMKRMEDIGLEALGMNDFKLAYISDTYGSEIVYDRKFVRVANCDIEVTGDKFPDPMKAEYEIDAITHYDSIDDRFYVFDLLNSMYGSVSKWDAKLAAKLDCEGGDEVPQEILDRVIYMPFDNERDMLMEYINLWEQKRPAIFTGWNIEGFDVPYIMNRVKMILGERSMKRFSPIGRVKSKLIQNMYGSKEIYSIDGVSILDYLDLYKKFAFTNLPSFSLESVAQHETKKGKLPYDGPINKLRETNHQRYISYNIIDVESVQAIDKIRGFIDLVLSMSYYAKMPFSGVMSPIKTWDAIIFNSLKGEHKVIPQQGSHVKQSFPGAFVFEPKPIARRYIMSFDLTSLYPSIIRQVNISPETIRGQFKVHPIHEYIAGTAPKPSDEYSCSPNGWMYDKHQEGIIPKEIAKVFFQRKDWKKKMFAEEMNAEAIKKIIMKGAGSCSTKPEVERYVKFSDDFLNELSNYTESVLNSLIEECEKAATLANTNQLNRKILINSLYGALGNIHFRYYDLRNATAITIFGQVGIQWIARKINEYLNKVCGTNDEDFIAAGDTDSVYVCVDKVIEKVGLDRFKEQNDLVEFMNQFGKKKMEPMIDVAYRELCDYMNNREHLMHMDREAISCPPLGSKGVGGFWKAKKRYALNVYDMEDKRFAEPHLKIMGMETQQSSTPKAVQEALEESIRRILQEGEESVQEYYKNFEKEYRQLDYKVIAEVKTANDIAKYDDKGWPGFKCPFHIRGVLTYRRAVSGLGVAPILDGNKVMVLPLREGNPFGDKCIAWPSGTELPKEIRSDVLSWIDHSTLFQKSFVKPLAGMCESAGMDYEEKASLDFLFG
- ASSAY_NAME: Counter-screen against bacteriophage T4 DNA polymerase
- Format: biochemical
- CONDITION_SET: DRC-2; read at 40'; concentration 20
METRIC: % inhibition T4 40' 20 (%)

> print(dat)
                                   compound  numeric.value
1  COc1ccccc1CC(=O)N1CCc2c(nc3cc(-c4ccccc4Cl)[nH]n3c2=O)C1 [Molecule 49]            -45
2  O=C1CSC2=NC3=C(CCc4ccccc43)C(c3cccs3)N12 (centres unmarked) [Molecule 59, O=C1CSC2=NC3=C(C(N12)c1cccs1)CCc1c3cccc1]              8
3  COc1ccc(/C=C/c2cc(C(=O)O)c3ccccc3n2)cc1 [Molecule 5, COc1ccc(cc1)/C=C/c1nc2ccccc2c(c1)C(=O)O]             27
4  O=C(CCc1csc(NC(=O)Nc2ccccc2)n1)Nc1nc2ccccc2s1 [KU0177354]           5.69
5  Cc1cccc(-c2noc(C(=O)NNC(=O)C(Cl)(Cl)Cl)n2)c1 [KU0266208]             -8
6  Cn1nc(-c2nnc(-c3ccccc3F)o2)c2c1CCN(C(=O)c1ccccc1Cl)C2 [Molecule 34]          0.863
7  CC(=O)OCC1=C(C(=O)[O-])N2C(=O)[C@@H](NC(=O)Cc3cccs3)[C@H]2SC1.[Na+] [Molecule 73]             17
8  COc1ccc(C2CC(c3ccc(Cl)cc3Cl)Nc3nc(N)nn32)cc1OC (centres unmarked) [Molecule 43]          -2.36
